Tested on: HeLa cells
Assay: Compound screen by flow cytometry: HeLa cell count as surrogate readout of cell viability (z-scoreHeLa); also: test concentration or dose not given here
Type: cell-based, human
Settings: human
Listed below: z-scoreHeLa mean values for each entry.

{"molecule": "Clc1ccc(CNc2nccc(-c3cnn4ncccc34)n2)cc1 [GW781673X]", "z-scoreHeLa mean": -0.71}
{"molecule": "O=C1Nc2ccc(I)cc2C1=Cc1cc(Br)c(O)c(Br)c1 [GW305074X]", "z-scoreHeLa mean": -2.15}
{"molecule": "Cc1ccc(O)cc1Nc1ccnc2ccc(S(C)(=O)=O)cc12 [GW559768X]", "z-scoreHeLa mean": 0.77}
{"molecule": "COc1cc2c(Nc3ccc(NC(=O)c4ccccc4)cc3)ncnc2cc1OCCCN1CCOCC1 [GSK301329A]", "z-scoreHeLa mean": -0.15}
{"molecule": "CCN(CC)CCOc1ccc(Nc2ncc3cc(-c4c(Cl)cccc4Cl)c(=O)n(C)c3n2)cc1", "z-scoreHeLa mean": -2.54}
